experimental-target: Serotonin 2 (5-HT2) receptor (Mus musculus, UniProt Q02152+P34968+P35363)
test-description: In vitro binding affinity for serotonin 5-hydroxytryptamine (5-HT) 2 receptors
Type: protein assay
hey, just use T if measured Ki is less than 700 nM, otherwise F

1) COc1cc(OCC2CCN(CC3CC3)CC2)cc(OC)c1OC.Cl | F
2) O=C(O)/C=C\C(=O)O.c1ccc(CCCOCC2CCN(Cc3ccccc3)CC2)cc1 | T
3) CC(C)(C)c1ccc(OCC2CCN(CC3CC3)CC2)cc1 | F
4) Cl.OC(CC1CCN(Cc2ccccc2)CC1)c1ccc(F)cc1 (stereo unspecified) | T
5) O=S(=O)(CC1CCN(CCC2CC2)CC1)c1ccc(F)cc1 | F

Incoming: Decide: Ki of `N#Cc1ccc(OCC2CCN(CC3CC3)CC2)cc1` strictly below 700 nM?
Outgoing: F

Incoming: Decide: Ki of `Cl.Fc1ccc(OCCC2CCN(Cc3ccccc3)CC2)cc1.O` strictly below 700 nM?
Outgoing: T

Incoming: Decide: Ki of `Fc1ccc(COCC2CCN(CCc3ccccc3)CC2)cc1.O=C(O)/C=C\C(=O)O` strictly below 700 nM?
Outgoing: T

Incoming: Decide: Ki of `Cl.c1ccc(COCC2CCN(Cc3ccccc3)CC2)cc1` strictly below 700 nM?
Outgoing: F

Incoming: Decide: Ki of `Cl.c1ccc(OCC2CCN(CC3CC3)CC2)nc1` strictly below 700 nM?
Outgoing: F

---

experimental-target: Sigma non-opioid intracellular receptor 1 (Mus musculus, UniProt O55242)
Sequence (O55242 whole entry): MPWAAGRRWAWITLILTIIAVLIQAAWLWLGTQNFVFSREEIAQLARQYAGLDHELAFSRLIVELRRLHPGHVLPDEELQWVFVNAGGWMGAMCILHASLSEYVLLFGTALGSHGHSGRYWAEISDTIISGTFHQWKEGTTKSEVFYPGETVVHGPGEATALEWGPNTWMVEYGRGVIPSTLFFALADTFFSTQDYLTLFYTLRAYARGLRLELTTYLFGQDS
test-description: In vitro binding affinity for the mouse sigma opioid receptor
A collection of compounds and their measured pKi
Quick note: pKi values are minus log10 of concentrations in mol/L.

Worked examples, 4 compounds total:
1. N#Cc1ccc(C(=O)CC2CCN(CC3CC3)CC2)cc1.O=C(O)/C=C/C(=O)O | 7.96
2. Nc1ccc(C(=O)CC2CCN(CC3CC3)CC2)cc1.O | 6.84
3. Cl.Clc1ccc(OCC2CCN(Cc3ccccc3)CC2)cc1 | 8.08
4. Cl.Oc1ccc(CN2CCC(COCc3ccc(F)cc3)CC2)cc1 | 8.15

Lookup result for [O-][S+](CC1CCN(CCC2CC2)CC1)c1ccc(F)cc1 (stereo unspecified) ; measured pKi: 6.51

Lookup result for `Cl.Fc1ccc(COCC2CCN(Cc3ccc(-c4ccccc4)cc3)CC2)cc1` ; measured pKi: 7.85

---

experimental-target: UniProtKB P61168
Sequence (P61168 whole entry): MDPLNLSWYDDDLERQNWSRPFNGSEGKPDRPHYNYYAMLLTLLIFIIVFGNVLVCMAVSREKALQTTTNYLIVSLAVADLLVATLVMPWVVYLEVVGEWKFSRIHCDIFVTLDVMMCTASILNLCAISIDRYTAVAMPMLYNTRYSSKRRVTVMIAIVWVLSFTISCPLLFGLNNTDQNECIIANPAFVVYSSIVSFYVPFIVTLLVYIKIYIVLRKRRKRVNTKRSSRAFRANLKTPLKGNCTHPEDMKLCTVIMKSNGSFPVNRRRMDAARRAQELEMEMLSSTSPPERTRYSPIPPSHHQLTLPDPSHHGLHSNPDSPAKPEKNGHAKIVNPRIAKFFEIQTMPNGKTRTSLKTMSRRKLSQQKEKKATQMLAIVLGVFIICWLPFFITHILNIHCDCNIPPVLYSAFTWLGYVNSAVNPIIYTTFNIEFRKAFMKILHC
test-description: In vitro binding affinity towards dopamine receptor D2
hey, just use Condition met if measured IC50 is less than 3 µM, otherwise Condition not met

As a guide, the following entries are already answered.
1. Br.CN(C)c1ccc(C(=O)CC2CCN(CC3CC3)CC2)cc1.O | Condition not met
2. C[S+]([O-])c1ccc(C(=O)CC2CCN(Cc3ccccc3)CC2)cc1.O (stereo unspecified) | Condition not met
3. O.O=C(CC1CCN(Cc2ccccc2)CC1)c1ccc(F)cc1.O=C(O)/C=C\C(=O)O | Condition met
4. O.c1ccc(CN2CCC(COc3ccc4ccccc4c3)CC2)cc1 | Condition met
5. Fc1ccc(-c2ccc(OCC3CCN(CC4CC4)CC3)cc2)cc1 | Condition not met
6. OC(CC1CCN(CCC2CC2)CC1)c1ccc(F)cc1 (stereo unspecified) | Condition not met
7. O.c1ccc2c(OCC3CCN(CC4CC4)CC3)ccnc2c1 | Condition not met
8. O=C(O)/C=C\C(=O)O.c1ccc(CN2CCC(COC3CC3)CC2)cc1 | Condition not met

Incoming: Decide: IC50 of `O=C(O)/C=C\C(=O)O.c1ccc(CCCOCC2CCN(Cc3ccccc3)CC2)cc1` strictly below 3 µM?
Outgoing: Condition met

Incoming: Decide: IC50 of O=C(CC1CCCCN1Cc1ccccc1)c1ccc(F)cc1.O=C(O)/C=C\C(=O)O (stereo unspecified) strictly below 3 µM?
Outgoing: Condition not met
